molecular target: UniProt P00803; assay: Inhibition of full length Escherichia coli His6-tagged LepB expressed in Escherichia coli C43(DE3) assessed as residual activity at 1.25 uM using dabcyl-VEVGGTATAGAFSRPGLE-(EDANS) as substrate preincubated for 10 mins followed by substrate addition measured for 2 hrs by FRET assay relative to control
Sequence (P00803 whole entry): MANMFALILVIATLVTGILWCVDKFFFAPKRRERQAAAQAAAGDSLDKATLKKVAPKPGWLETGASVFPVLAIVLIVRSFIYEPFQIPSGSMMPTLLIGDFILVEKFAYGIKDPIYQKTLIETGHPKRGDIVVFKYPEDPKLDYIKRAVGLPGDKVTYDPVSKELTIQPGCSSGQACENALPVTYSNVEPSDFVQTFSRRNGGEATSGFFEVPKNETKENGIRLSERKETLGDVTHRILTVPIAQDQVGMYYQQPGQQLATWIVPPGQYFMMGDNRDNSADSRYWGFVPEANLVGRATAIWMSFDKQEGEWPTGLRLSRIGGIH
quantity: Activity (%)

>>> recorded_value("CCCCCCc1ccc(-c2ccc(C(=O)N3CCC[C@H]3C(=O)N[C@H](C(=O)N[C@@H](C)C(=O)N[C@@H](CC(N)=O)C(=O)N[C@@H](C)B(O)O)[C@H](C)O)cc2)cc1")
16.8
>>> recorded_value("CCCCCCc1ccc(-c2ccc(C(=O)N3CC(CN)C[C@H]3C(=O)N[C@H](C(=O)N[C@@H](C)C(=O)N[C@@H](CC(N)=O)C(=O)N[C@@H](C)B3O[C@@H]4C[C@@H]5C[C@@H](C5(C)C)[C@]4(C)O3)[C@H](C)O)cc2)cc1 (some centres undefined)")
0.881
>>> recorded_value("CCCCCCCCCC(=O)N1CCC[C@H]1C(=O)N[C@H](C(=O)N[C@@H](C)C(=O)N[C@@H](CC(N)=O)C(=O)N[C@@H](C)B1O[C@@H]2C[C@@H]3C[C@@H](C3(C)C)[C@]2(C)O1)[C@H](C)O")
16.9
>>> recorded_value("CCCCc1ccc(-c2ccc(C(=O)N[C@@H](CCN)C(=O)N[C@H](C(=O)N[C@@H](C)C(=O)N[C@@H](CCCCN)C(=O)N[C@@H](C)B3O[C@@H]4C[C@@H]5C[C@@H](C5(C)C)[C@]4(C)O3)[C@H](C)O)cc2)cc1")
0.522
